- Tested on: brine shrimps
- Experimental Protocol: Brine shrimp lethality bioassay
- Format: in vivo
- Details: Table 3
Form field: Toxicity (TC50) Brine Shrimp (one value per entry).
Attribute Measured: Toxicity (TC50) Brine Shrimp (µg/mL)

>>> endpoint_result("CS[C@@]12CC3=CC=C[C@H](OC(C)=O)[C@H]3N1C(=O)[C@]1(SC)CC3=COC=C[C@H](OC(C)=O)[C@H]3N1C2=O")
50
>>> endpoint_result("CSS[C@@]12CC3=COC=C[C@H](OC(C)=O)[C@H]3N1C(=O)[C@]1(SC)CC3=COC=C[C@H](OC(C)=O)[C@H]3N1C2=O")
40

---

- Tested on: Bacillus subtilis BS01
- Experimental Protocol: Antibacterial assay, micro broth dilution
- Format: cell-based
- Details: BS01, micro broth dilution, LB medium, 24 hours at 37 °C, read-out: Antibacterial Activity (MIC) B. subtilis
Overview of reported log10(MIC) across a group of compounds:
Attribute Measured: log10(MIC) (log10 of the value in µg/mL)

>>> endpoint_result("CS[C@@]12CC3=CC=C[C@H](OC(C)=O)[C@H]3N1C(=O)[C@]1(SC)CC3=COC=C[C@H](O)[C@H]3N1C2=O")
1.78
>>> endpoint_result("CS[C@@]12Cc3ccccc3N1C(=O)[C@]1(SC)CC3=COC=C[C@H](OC(C)=O)C3N1C2=O (some centres unmarked)")
1.85
>>> endpoint_result("O=C1N2C3OC=CC4SC2(CC3C4O)C(=O)NC12Cc1ccccc1O2 (centres unmarked)")
1.78
>>> endpoint_result("CS[C@@H]1NC(=O)[C@@](Cc2ccccc2)(SC)NC1=O")
1.90
>>> endpoint_result("CSC12CC3=COC=CC(OC(C)=O)C3N1C(=O)C1(SC)CC3(O)C=CC(=O)C(OC(C)=O)C3N1C2=O (centres unmarked)")
1.70
>>> endpoint_result("O=C(O)c1cn(C2CC2)c2cc(N3CCNCC3)c(F)cc2c1=O [CFN, Ciprofloxacin, reference compound]")
-0.22
>>> endpoint_result("CS[C@@]12Cc3ccccc3N1C(=O)[C@]1(SC)CC3=COC=C[C@H](O)C3N1C2=O (some centres unmarked)")
1.90
